Examples of binders with documented OD450 ratio sample/blank follow.
Assayed target: native soluble IL-6R in human plasma (human, UniProt P08887)
Test: ELISA 3, periplasmic extract; competitor BN-12; human plasma
Write the value as a bare number.

IL6RPMP107C3 (VHH) VHH: EVQLVESGGGLVQAGGSLNLSCNASGDIGSINAMGWHRQAPGQQREWVAVITDTDSTIYPDSVKGRFAISRDGAKNTVHLRMSSLKPEDTAVYYCNAYQAGWGDYWGQGTQVTVSS ... 1.06
IL6RPMP103A5 (VHH) VHH: EVQLVESGGGLVQAGDSLRLSCVASGLPFSTLHMGWFRQAPGKEHESVSAISSDGGSEYYAGSVKGRFTISRDNAKNTVYLQMNSLKPEDTAVYYCAADPRRIGANIKYSDYWGQGTQVTVSS ... 0.943
IL6RPMP106F4 (VHH) VHH: EVQLVESGGGLVQAGGSLRLSCAASGSIFRINAMGWYRQAPGKQRELVAAAISGGSTNYADFVKGRFTISRDNAKNTVYLQMNSLKPGDTAVYYCNALVVSHNYSDYVPFPDDYWGQGTQVTVSS ... 1.01

Switching to the query record.
### Prompt // lookup OD450 ratio sample/blank for IL6RPMP101A5 (VHH) VHH: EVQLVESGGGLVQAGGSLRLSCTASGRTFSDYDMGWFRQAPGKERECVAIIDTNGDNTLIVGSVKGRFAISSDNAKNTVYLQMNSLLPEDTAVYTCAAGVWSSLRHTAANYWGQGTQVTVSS
### Response 0.95

Source of measurements: patent US10618964B2
